- target.or.test.system: human IL-17A/F (human, UniProt Q16552 24-155; Q96PD4 31-163)
- Sequence (Q16552 24-155 limits assumed, chain 1 of 2): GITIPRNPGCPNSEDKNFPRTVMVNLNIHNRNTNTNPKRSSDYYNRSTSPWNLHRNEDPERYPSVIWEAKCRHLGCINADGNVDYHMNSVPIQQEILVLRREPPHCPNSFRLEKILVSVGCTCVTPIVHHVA
- Sequence (Q96PD4 31-163 limits assumed, chain 2 of 2): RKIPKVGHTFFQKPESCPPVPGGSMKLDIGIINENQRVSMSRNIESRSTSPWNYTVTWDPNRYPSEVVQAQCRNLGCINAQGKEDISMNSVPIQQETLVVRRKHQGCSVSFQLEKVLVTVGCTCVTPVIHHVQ
- procedure.summary: cell-based or functional assay
Assign yes (1) to entries whose Potency (pM), IL-17-driven IL-6 production in HS27 cells meets or exceeds 100 pM; assign no (0) to the rest.

| binder | class.name |
| --- | --- |
| IL17-G9-4 (antibody, V domains shown, no own VH entry is printed) VH: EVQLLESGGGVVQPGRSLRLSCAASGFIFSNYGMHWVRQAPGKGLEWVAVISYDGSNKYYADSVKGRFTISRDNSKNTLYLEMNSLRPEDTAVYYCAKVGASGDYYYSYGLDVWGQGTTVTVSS VL: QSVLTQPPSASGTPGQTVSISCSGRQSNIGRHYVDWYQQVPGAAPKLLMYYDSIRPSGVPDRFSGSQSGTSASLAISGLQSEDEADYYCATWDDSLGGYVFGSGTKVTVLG | yes (1) |
| B6-44 (antibody, V domains shown) VH: EVQLVQSGAEVKKPGSSVKVSCKASGGSFLSYGFSWVRQAPGQGLEWMGGITPFFGLADYAQKFQGRVTITADESTTTAYMELSGLTSDDTAVYYCARESSEFWNGYYCTQDFDLWGQGTTVTVSS VL: EIVLTQSPDFQSVTPKEKVTITCRASQDIGSDLHWYQQKPDQSPKLLIKYASNSISGVPSRFSGSGSGTDFTLTINGLEAEDAGTYYCHQTAYLPQTFGPGTKVDIK | yes (1) |
| IL17-B6-5 (antibody, V domains shown, also called pJP243 B6.1 #5VH / pJP244 B6.1 #5VK) VH: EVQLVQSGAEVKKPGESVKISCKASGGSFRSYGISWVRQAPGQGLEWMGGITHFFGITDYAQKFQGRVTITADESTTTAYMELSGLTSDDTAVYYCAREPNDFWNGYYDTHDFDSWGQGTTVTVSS VL: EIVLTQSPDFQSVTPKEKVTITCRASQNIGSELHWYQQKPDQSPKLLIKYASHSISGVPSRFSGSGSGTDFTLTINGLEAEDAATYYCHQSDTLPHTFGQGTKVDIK | yes (1) |
| IL17-B6-15 (antibody, V domains shown, also called pJP245 B6.1 #15VH / pJP246 B6.1 #15Vk) VH: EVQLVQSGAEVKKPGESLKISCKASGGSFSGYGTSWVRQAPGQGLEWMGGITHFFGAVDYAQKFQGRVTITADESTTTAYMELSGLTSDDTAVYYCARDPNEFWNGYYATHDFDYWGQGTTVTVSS VL: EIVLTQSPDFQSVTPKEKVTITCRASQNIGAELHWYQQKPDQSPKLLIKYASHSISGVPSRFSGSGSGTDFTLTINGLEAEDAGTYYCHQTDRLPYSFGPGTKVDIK | yes (1) |
| IL17-G9-M2 (antibody, V domains shown) VH: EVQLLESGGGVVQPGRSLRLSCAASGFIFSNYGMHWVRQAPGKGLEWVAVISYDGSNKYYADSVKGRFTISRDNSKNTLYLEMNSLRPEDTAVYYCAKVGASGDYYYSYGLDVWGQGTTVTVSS VL: QSVLTQPPSASGTPGQTVSISCSGHNSNIGYHYVHWYQQVPGAAPKLLIYGDGWRPSGVPDRFSGSQSGTSASLAISGLQSEDEADYYCGTWDDWLGGYVFGTGTKVTVLG | no (0) |
